- target: Neurogenic locus notch homolog protein 3 (Homo sapiens)
- measurement.description: NOTCH3 binders on small-molecule microarray, primary screen, biochemical, 635/667 nm fluorescence (AID 1096)
- details: NOTCH3 binding, 635 nm fluorescence, higher = more signal
measured.parameter: composite z-score
Just the number, please, no unit attached.

Field: example entries. Status: answers known.
CC(=O)NCCCC[C@@H]1NC(=O)[C@H]2C[C@@H](C(=O)NCCCCCCNC(=O)CS)[C@@H](c3ccc(O)cc3)N2C1=O | -0.372
C=C(CCCC)/C(=C/C[C@H](OC(=O)c1ccncc1)c1ccccc1OCCO)c1cnc2ccccc2c1 | 1.13
NC(=O)NCC#Cc1ccc2c(c1)[C@]1(C(=O)N2)[C@H](C(N)=O)[C@H]2C(=O)O[C@H](c3ccccc3)[C@H](c3ccccc3)N2[C@@H]1c1ccc(O)cc1 | -0.382
C=CC[C@@]12N=C(c3ccc(OCCCO)cc3)O[C@@H]1c1ccccc1N(C)C2=O | 0.997
CCOC(=O)C[C@H]1[C@H](OC(=O)c2cc3ccccc3oc2=O)[C@@H](NC(=O)c2ccccc2)c2cc(OCCCO)ccc2N1C(=O)c1ccc2ccccc2n1 | 0.662
CC(C)N1C(=O)C[C@@](C(=O)NCC(F)(F)F)(c2ccc([N+](=O)[O-])cc2)[C@H]1c1ccc(CO)cc1 | 0.356

Now for another entry.
Enquiry: Fill in composite z-score for `COCCCNC(=O)[C@@H]1c2ccccc2C(=O)N(Cc2ccccc2Cl)[C@H]1c1ccc(CO)cc1` tested with Neurogenic locus notch homolog protein 3 (Homo sapiens).
Return: 0.388
